I'd appreciate it if you could supply EC50 values for the items below.
# target.system: Bile acid receptor (Homo sapiens, UniProt Q96RI1)
# Sequence (Q96RI1 whole entry): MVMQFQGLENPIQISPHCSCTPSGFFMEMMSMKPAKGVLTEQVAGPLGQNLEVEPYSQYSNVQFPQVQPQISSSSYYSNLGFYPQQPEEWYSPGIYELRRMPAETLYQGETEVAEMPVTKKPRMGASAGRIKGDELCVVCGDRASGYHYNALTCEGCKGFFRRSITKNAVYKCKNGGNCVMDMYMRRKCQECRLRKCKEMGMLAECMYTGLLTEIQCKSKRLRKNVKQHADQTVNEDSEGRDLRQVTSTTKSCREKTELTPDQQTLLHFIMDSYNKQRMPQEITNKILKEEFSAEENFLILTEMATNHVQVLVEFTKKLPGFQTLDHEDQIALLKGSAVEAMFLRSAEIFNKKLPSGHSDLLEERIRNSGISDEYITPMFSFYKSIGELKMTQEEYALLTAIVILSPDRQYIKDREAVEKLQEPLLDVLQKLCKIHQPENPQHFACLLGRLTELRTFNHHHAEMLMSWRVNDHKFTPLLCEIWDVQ
# assay.method.text: Agonist activity at FXR in HEK293T cells assessed as transcriptional activity by measuring […] by luciferase reporter assay

*Q* Entry CN(Cc1ccc(C(=O)NO)cc1)c1ccc(OCc2c(-c3c(Cl)cccc3Cl)nsc2C2CC2)nc1C(F)(F)F needs its EC50 filled in; supply it.
*A* > 30000 nM

*Q* Entry CC(C)c1snc(-c2c(Cl)cccc2Cl)c1COc1ccc(N(C)CC2CCCC(C(=O)O)C2)c(C(F)(F)F)n1 (stereo not given) needs its EC50 filled in; supply it.
*A* > 30000 nM

*Q* Entry CC(C)c1snc(-c2c(Cl)cccc2Cl)c1COc1ccc(/C=C/c2cccc(C(=O)O)c2)c(Cl)c1 needs its EC50 filled in; supply it.
*A* 570 nM

*Q* Entry CC(C)c1snc(-c2c(Cl)cccc2Cl)c1COc1ccc(N(C)Cc2ccc(C(=O)O)s2)c(C(F)(F)F)n1 needs its EC50 filled in; supply it.
*A* 510 nM

*Q* Entry CC(C)c1snc(-c2c(Cl)cccc2Cl)c1COc1ccc(N(C)Cc2ccc(C(=O)O)cc2)c(C(F)(F)F)n1 needs its EC50 filled in; supply it.
*A* 350 nM

*Q* Entry CCN(Cc1ccc(C(=O)O)cc1)c1ccc(OCc2c(-c3c(Cl)cccc3Cl)nsc2C(C)C)nc1C(F)(F)F needs its EC50 filled in; supply it.
*A* 2160 nM

*Q* Entry CN(Cc1ccc(C(=O)O)cc1)c1ccc(OCc2c(-c3c(Cl)cccc3Cl)nsc2C2CC2)cc1C(F)(F)F needs its EC50 filled in; supply it.
*A* 410 nM

*Q* Entry CN(Cc1cccc(C(=O)NO)c1)c1ccc(OCc2c(-c3c(Cl)cccc3Cl)nsc2C2CC2)nc1C(F)(F)F needs its EC50 filled in; supply it.
*A* 1090 nM

*Q* Entry CN(Cc1ccc(C(=O)O)cc1)c1ccc(OCc2c(-c3c(Cl)cccc3Cl)nsc2C2CC2)nc1C(F)(F)F needs its EC50 filled in; supply it.
*A* 310 nM

*Q* Entry CN(Cc1cccc(C(=O)O)c1)c1ccc(OCc2c(-c3c(Cl)cccc3Cl)nsc2C2CC2)nc1C(F)(F)F needs its EC50 filled in; supply it.
*A* 270 nM

---

# assay.method.text: AUC (0 to t) in mouse at 5 mg/kg, iv
# Assay type: ADME, organism-based
# Set-up: dose 5 mg/kg, route iv
# recorded.conditions: in vivo
assay.endpoint: AUC(0-t) (ng·h/mL)
Expressed in ng·h/mL, but write only the number.

*Q* Entry CN(Cc1cccc(C(=O)O)c1)c1ccc(OCc2c(-c3c(Cl)cccc3Cl)nsc2C2CC2)nc1C(F)(F)F needs its AUC(0-t) filled in; supply it.
*A* 5760

*Q* Entry CC(C)c1onc(-c2c(Cl)cccc2Cl)c1COc1ccc(/C=C/c2cccc(C(=O)O)c2)c(Cl)c1 needs its AUC(0-t) filled in; supply it.
*A* 3140

---

# assay.method.text: Tmax in mouse at 100 mg/kg, po
# Type: ADME, organism-based
# recorded.conditions: in vivo
assay.endpoint: Tmax
Your reply should be a number followed by the unit it is expressed in.

*Q* Entry CN(Cc1cccc(C(=O)O)c1)c1ccc(OCc2c(-c3c(Cl)cccc3Cl)nsc2C2CC2)nc1C(F)(F)F needs its Tmax filled in; supply it.
*A* 30 min

---

# assay.method.text: Cmax in mouse at 100 mg/kg, po
# Type: ADME, organism-based
# Parameters: dose 100 mg/kg, route po
# recorded.conditions: in vivo
assay.endpoint: Cmax
Your reply should be a number followed by the unit it is expressed in.

*Q* Entry CN(Cc1cccc(C(=O)O)c1)c1ccc(OCc2c(-c3c(Cl)cccc3Cl)nsc2C2CC2)nc1C(F)(F)F needs its Cmax filled in; supply it.
*A* 40200 ng/mL

---

# assay.method.text: Half life in mouse at 100 mg/kg, po
# Type: ADME, organism-based
# recorded.conditions: in vivo
assay.endpoint: half-life (h)
Expressed in h, but write only the number.

*Q* Entry CN(Cc1cccc(C(=O)O)c1)c1ccc(OCc2c(-c3c(Cl)cccc3Cl)nsc2C2CC2)nc1C(F)(F)F needs its half-life filled in; supply it.
*A* 2.6
